target: Tau; experiment: rat primary cortical neurons, FLIPR, 25 uM ASO
Bases are written 5' to 3'; sugars and linkages follow in the same order, as letters with counts (s phosphorothioate, o phosphodiester; PS: all linkages phosphorothioate). The collection does not say whether C is 5-methylated. l = locked nucleic acid (LNA); d = 2'-deoxy (DNA)
Measured calcium oscillation score accompanies every entry in the list below.

SEQUENCE INPUT	calcium oscillation score
ATTTCCAAATTCACTTTTAC (sugars l2 d16 l2, PS)	≥ 200 % of control
CTTCTCCAGTATTTCTTC (sugars l2 d13 l3, PS)	69.4 % of control
CTCCTAGAACACAACAC (sugars l3 d10 l4, PS)	50.9 % of control
ATGTTGCCTAATGAGC (sugars l3 d10 l3, PS)	69 % of control
AGAGGCACAAGTCCT (sugars l3 d9 l3, PS)	74.3 % of control
GCTCTTCAAATCATTC (sugars l4 d8 l4, PS)	58.3 % of control

I have this sequence here, CCCATTCAGATCTATCC (sugars l2 d13 l2, PS) , and I need its recorded calcium oscillation score. 102 % of control

Request: TCTTTATTAACACTCCA (sugars l4 d10 l3, PS) 72.6 % of control

Request: CAAACAATCCATTTATATT (sugars l4 d11 l4, PS) 69.3 % of control

Request: CATTATCATCCATTCTG (sugars l3 d10 l4, PS) 47.3 % of control

Request: AGGTTAAGTGATTAACCAAT (sugars l3 d14 l3, PS) 115 % of control
